Settings: pH 2.7
For each record, write down the corresponding chromatographic logP.
Give bare numbers.

Known results for compounds:
1) Cn1oc(=O)nc1/C(=N\OCn1ccc(N)n1)c1ccccc1 [Example 8]
1.29
2) N#C/C(=N\OCn1ccc([N+](=O)[O-])n1)c1ccccc1 [Example IV-1]
2.9
3) Cn1oc(=O)nc1/C(=N\OCn1ccc([N+](=O)[O-])n1)c1ccccc1 [Example 2]
2.1
4) Cn1c(C(=NOCc2nc(Br)cs2)c2ccccc2)noc1=O [Example 3]
3.25

Now for the compound whose chromatographic logP we want.
Assign chromatographic logP to the following record: CCCCCOC(=O)Nc1ccn(CO/N=C(/c2ccccc2)c2nc(=O)on2C)n1 [Example 7]
3.06

---

For each record, write down the corresponding LogP.
Conditions: pH 2.7
Marks after values point to notes of the source that are not given here.

Known results for molecules:
1. Cn1c(/C(=N\OCc2nc(/C=C/C3CCCCC3)cs2)c2ccccc2)noc1=O
5.39^[a]
2. CCCCC#Cc1csc(CON=C(C(N)=NO)c2ccccc2)n1
2.98^[a]

Assign LogP to the following record: `Cn1c(/C(=N\OCc2nc(NC(=O)COCc3ccccc3)cs2)c2ccccc2)noc1=O`
3.45^[a]

---

For each record, write down the corresponding LogP.
Conditions: pH 2.7
Marks after values point to notes of the source that are not given here.

Known results for molecules:
1. CCCCCCNC(=O)c1csc(CO/N=C(/c2ccccc2)c2noc(=O)n2C)n1
3.76^[a]
2. N#CC(=NOCn1ccc(N)n1)c1ccccc1
1.86^[a]
3. C#CCCOC(=O)Nc1csc(CO/N=C(/c2ccccc2)c2noc(=O)n2C)n1
2.97^[a]
4. Cn1c(/C(=N\OCc2nc(C#Cc3ccc(F)cc3)cs2)c2ccccc2)noc1=O
4.09^[a]
5. Cn1c(/C(=N\OCc2nc(NC(=O)OC(C)(C)C)cs2)c2ccccc2)noc1=O
3.64^[a]
6. Cn1c(/C(=N\OCc2nc(/C=C/Cc3ccccc3)cs2)c2ccccc2)noc1=O
4.39^[a]

Your task in this section: give LogP for each listed record.
1. CCCCCC#Cc1csc(CO/N=C(/c2ccccc2)c2noc(=O)n2C)n1
2. CCCC#Cc1csc(CO/N=C(/c2ccccc2)c2noc(=O)n2C)n1
3. N#CC(=NOCc1nc(C#CCCCc2ccccc2)cs1)c1ccccc1
4. Cc1ccc(C(=O)Nc2csc(CO/N=C(/c3ccccc3)c3noc(=O)n3C)n2)cc1
5. Cn1c(/C(=N\OCc2nc(/C=C/C3CC3)cs2)c2ccccc2)noc1=O
6. CCCC/C=C/c1csc(CO/N=C(/c2ccccc2)c2noc(=O)n2C)n1
7. O=c1[nH]c(/C(=N\OCc2nc(C#CC3CCCCC3)cs2)c2ccccc2)no1

1: 4.72^[a]; 2: 3.87^[a]; 3: 5.19^[a]; 4: 3.34^[a]; 5: 3.90^[a]; 6: 4.77^[a]; 7: 4.33^[a]

Your task in this section: give LogP for each listed record.
1. CC(OCC(=O)Nc1csc(CO/N=C(/c2ccccc2)c2noc(=O)n2C)n1)c1ccccc1 (stereo not drawn)
2. Cn1c(/C(=N\OCc2nc(C(=O)NCCc3ccccc3)cs2)c2ccccc2)noc1=O
3. Cn1c(/C(=N\OCc2nc(C#CCCc3ccccc3)cs2)c2ccccc2)noc1=O
4. Cn1c(/C(=N\OCc2nc(NC(=O)C(C)(C)C)cs2)c2ccccc2)noc1=O

1: 4.32^[a]; 2: 3.27^[a]; 3: 4.30^[a]; 4: 3.23^[a]

Your task in this section: give LogP for each listed record.
1. N#CC(=NOCc1nc(C#CC2CC2)cs1)c1ccccc1
2. CC(Oc1ccccc1)C(=O)Nc1csc(CO/N=C(/c2ccccc2)c2noc(=O)n2C)n1 (stereo not drawn)
3. CCCCC#Cc1csc(CO/N=C(/c2ccccc2)c2noc(=O)n2C)n1
4. Cn1c(/C(=N\OCc2nc(C#CC3CC3)cs2)c2ccccc2)noc1=O

1. 4.04^[a]
2. 3.55^[a]
3. 4.26^[a]
4. 3.56^[a]

---

For each record, write down the corresponding chromatographic logP.
Conditions: pH 2.7
Give bare numbers.

Known results for compounds:
1. N#CC(=NOCc1nc(Br)cs1)c1ccccc1
3.61
2. CN(O)C(=N)/C(=N\OCc1nc(Br)cs1)c1ccccc1
1.49
3. Cn1oc(=O)nc1/C(=N\OCc1nc(Br)cs1)c1ccccc1
2.6
4. CN(O)C(=N)/C(=N\OCn1ccc([N+](=O)[O-])n1)c1ccccc1
1.15

Now for the compound whose chromatographic logP we want.
Assign chromatographic logP to the following record: `Cn1oc(=O)nc1/C(=N\OCc1nc(C#CC2CC2)cs1)c1ccccc1`
3.04

---

Conditions: pH 2.7
Marks after values point to notes of the source that are not given here.
For each record, write down the corresponding LogP.

1. CCCCCC#Cc1csc(CON=C(C(N)=NO)c2ccccc2)n1
3.37^[a]
2. Cn1c(/C(=N\OCc2nc(C(=O)Nc3ccccc3)cs2)c2ccccc2)noc1=O
3.29^[a]
3. Cn1c(/C(=N\OCc2nc(NC(=O)COc3ccccc3)cs2)c2ccccc2)noc1=O
3.30^[a]
4. CCCCCC#Cc1csc(CON=C(C#N)c2ccccc2)n1
5.27^[a]
5. CCCCC#Cc1csc(CON=C(C#N)c2ccccc2)n1
4.83^[a]
6. CCCC#Cc1csc(CO/N=C(/c2ccccc2)c2noc(=O)[nH]2)n1
3.47^[a]

Your task in this section: give LogP for each listed record.
1. COC(=O)c1csc(CON=C(C#N)c2ccccc2)n1
2. Cn1c(/C(=N\OCc2nc(C#CC3CCCCC3)cs2)c2ccccc2)noc1=O
3. Cn1c(/C(=N\OCc2nc(C#CCc3ccccc3)cs2)c2ccccc2)noc1=O
4. Cn1c(/C(=N\OCc2nc(C(=O)NC(C)(C)C)cs2)c2ccccc2)noc1=O
5. CCCCC#Cc1csc(CO/N=C(/c2ccccc2)c2noc(=O)[nH]2)n1
6. CCCC#Cc1csc(CON=C(C(N)=NO)c2ccccc2)n1
7. CCCC#Cc1csc(CON=C(C#N)c2ccccc2)n1

2.80^[a]
4.80^[a]
4.07^[a]
3.22^[a]
3.39^[a]
2.59^[a]
4.41^[a]

Your task in this section: give LogP for each listed record.
1. N#CC(=NOCc1nc(C#CC2CCCCC2)cs1)c1ccccc1
2. NC(=NO)C(=NOCc1nc(Br)cs1)c1ccccc1

["5.42^[a]", "1.86^[a]"]
